Measured activity change, negative = inhibition, listed per entry.
# targetDesc: RecQ-like DNA helicase BLM (Homo sapiens)
# experiment: qHTS Assay for Inhibitors of Bloom's syndrome helicase (BLM);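 note: plate controls were vehicle for no effect and no enzyme for full effect; nearly all actives have a fitted effect of over 35% in size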
# conditionSet: recombinant BLM DNA unwinding, fluorescence dequenching; series mostly up to 56.1 µM
Among all 350,000 compounds or so, about 700 (0.2%) were called active. The list comes from a sample in which actives are over-represented; it also holds close analogues and randomly drawn compounds.
readoutName: activity change, negative = inhibition

| compound | targetDesc | result |
| --- | --- | --- |
| COC(=O)C(C(=O)OC)[C@@H]1CCCC(=O)C1 | RecQ-like DNA helicase BLM (Homo sapiens) | -7.4% [at 12.4 µM] (inactive) |
| CC(C)CN1CCc2nc(-c3ccccc3)c3c(c2C1)COC(C)C3 (configuration not stated) | RecQ-like DNA helicase BLM (Homo sapiens) | -4.43% [at 12.4 µM] (inactive) |
| CO[C@H]1COC(=O)[C@@H](OCc2ccccc2)/C=C\[C@H](C)[C@@H](OC)COC(=O)[C@H](OCc2ccccc2)/C=C\[C@@H]1C | RecQ-like DNA helicase BLM (Homo sapiens) | 6.6% [at 12.4 µM] (inactive) |
| C[C@H]1CC[C@H](C(=O)O)N[C@@H]1c1ccc(C#Cc2ccccc2)cc1 | RecQ-like DNA helicase BLM (Homo sapiens) | 6.21% [at 12.4 µM] (inactive) |
| C[C@H]1Cc2c(-c3ccccc3)nc3c(c2CO1)CN(S(=O)(=O)c1ccc(Cl)c2nonc12)CC3 | RecQ-like DNA helicase BLM (Homo sapiens) | -0.0157% [at 12.4 µM] (inactive) |
| C=CCN1c2ccccc2[C@]23C[C@@H](C(=O)OC)N(S(=O)(=O)c4ccc([N+](=O)[O-])cc4)C2=NC(C(=O)OC)=C(C(=O)OC)[C@H]13 | RecQ-like DNA helicase BLM (Homo sapiens) | -4.61% [at 12.4 µM] (inactive) |
| COC(=O)CC1c2ccccc2C(Cc2ccc(OC)cc2)=C(C)N1C(=O)OC (configuration not stated) | RecQ-like DNA helicase BLM (Homo sapiens) | 1.25% [at 12.4 µM] (inactive) |
| C/C(CCN1CCCCc2nc(C)c(C)cc21)=N\O[C@@H](C)c1cn([C@@H]2COC[C@@H]2O)nn1 | RecQ-like DNA helicase BLM (Homo sapiens) | 3.53% [at 12.4 µM] (inactive) |
| COc1ccc(-c2nc3c(c4c2C[C@H](c2ccccc2)OC4)CN(C(=O)C2CC2)CC3)c(C)c1 | RecQ-like DNA helicase BLM (Homo sapiens) | -3.76% [at 12.4 µM] (inactive) |
| CCCCS(=O)(=O)N1C2=NC(C(=O)OC)=C(C(=O)OC)[C@@H]3N(Cc4ccccc4)c4ccccc4[C@]23C[C@H]1C(=O)OC | RecQ-like DNA helicase BLM (Homo sapiens) | -0.97% [at 12.4 µM] (inactive) |
| COc1ccc(-c2nc3c(c4c2C[C@H](c2ccccc2)OC4)CN(C(=O)c2cccnc2)CC3)c(C)c1 | RecQ-like DNA helicase BLM (Homo sapiens) | 0.694% [at 12.4 µM] (inactive) |
| C=CC1=C2C=C(C3CC3)N(C(CO)CO)C=C2C(=O)C(C)(OC(=O)c2ccco2)C1=O (configuration not stated) | RecQ-like DNA helicase BLM (Homo sapiens) | -12.4% [at 12.4 µM] (inactive) |

Data credit: PubChem BioAssay AID2528
